Data provenance: patent US6608082B1

Measured pIC50 of individual entries
target: MCR-4 (Homo sapiens); construct: expressed in transfected cells; host or cells: HEK 293; test: Melanocortin receptor binding assay, competition with 125I-HP 467, HEK 293 cells expressing hMCR-4; details: inhibition of binding of 125I-HP 467, HEK 293 cells expressing MCR-4; TRG 2414 library; read-out: MC-4 IC50
Sequence (P32245 whole entry): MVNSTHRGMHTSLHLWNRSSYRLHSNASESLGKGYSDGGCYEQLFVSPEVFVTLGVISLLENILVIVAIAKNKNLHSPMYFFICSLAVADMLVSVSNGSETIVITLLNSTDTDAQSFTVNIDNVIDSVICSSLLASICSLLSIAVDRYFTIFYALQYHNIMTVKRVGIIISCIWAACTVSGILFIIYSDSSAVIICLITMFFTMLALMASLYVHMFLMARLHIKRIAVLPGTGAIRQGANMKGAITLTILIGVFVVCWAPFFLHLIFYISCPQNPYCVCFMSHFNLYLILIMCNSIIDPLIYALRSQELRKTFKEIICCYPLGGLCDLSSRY
pIC50: −log10 of the molar value.

| COMPOUND | pIC50 |
| --- | --- |
| CCOc1ccccc1CNCC1c2ccccc2CN(CCCCC(CN)NCCc2ccccc2)C1c1ccc(Cl)cc1Cl (stereo not drawn) [TRG 2414-6] | 5.26 |
| CCCOc1ccc(C2C(CNCc3cccc(OC)c3)c3ccccc3CN2CCCCC(CN)NCc2ccccc2)cc1 (stereo not drawn) [TRG 2414-179] | 5.26 |
| COc1ccc(CCNCC2c3ccccc3CN(CCCCC(CN)NCc3ccccc3)C2c2cccc(Oc3ccccc3)c2)cc1 (stereo not drawn) [TRG 2414-107] | 5.09 |
